- STUDY SYSTEM: CYP2D6 (Homo sapiens, UniProt P10635)
- Sequence (P10635 whole entry): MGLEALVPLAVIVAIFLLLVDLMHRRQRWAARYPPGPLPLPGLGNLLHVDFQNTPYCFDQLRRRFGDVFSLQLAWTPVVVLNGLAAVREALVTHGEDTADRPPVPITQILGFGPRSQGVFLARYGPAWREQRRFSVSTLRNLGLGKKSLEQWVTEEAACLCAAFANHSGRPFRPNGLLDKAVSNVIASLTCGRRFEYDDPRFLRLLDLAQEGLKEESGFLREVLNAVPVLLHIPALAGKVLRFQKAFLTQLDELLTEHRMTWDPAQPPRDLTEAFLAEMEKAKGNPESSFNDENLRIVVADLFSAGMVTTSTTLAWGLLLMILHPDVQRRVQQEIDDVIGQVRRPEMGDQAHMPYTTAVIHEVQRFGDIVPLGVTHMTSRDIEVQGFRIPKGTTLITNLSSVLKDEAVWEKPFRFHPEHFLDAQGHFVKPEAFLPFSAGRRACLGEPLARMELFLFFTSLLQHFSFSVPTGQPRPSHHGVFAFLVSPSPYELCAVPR
- METHOD NOTES: Inhibition of CYP2D6
- Type: in vitro ADME
- CONDITION DETAILS: pooled human liver microsomes, pH 7.4, probe dextromethorphan (O-demethylation), 10 μM
MEASURED QUANTITY: inhibition at 50 μM

Which inhibition at 50 μM value is on record for "O=C1Nc2ccc(Cl)cc2[C@@](C#CC2CC2)(C(F)(F)F)O1" ?
< 10%

---

- METHOD NOTES: Efavirenz plasma pharmacokinetics
- Type: in vivo
- CONDITION DETAILS: human, po, 600 mg
MEASURED QUANTITY: Cmax

Which Cmax value is on record for "O=C1Nc2ccc(Cl)cc2[C@@](C#CC2CC2)(C(F)(F)F)O1" ?
4.6 to 8.4 µM

---

- STUDY SYSTEM: CYP2C8 (Homo sapiens, UniProt P10632)
- Sequence (P10632 1-490): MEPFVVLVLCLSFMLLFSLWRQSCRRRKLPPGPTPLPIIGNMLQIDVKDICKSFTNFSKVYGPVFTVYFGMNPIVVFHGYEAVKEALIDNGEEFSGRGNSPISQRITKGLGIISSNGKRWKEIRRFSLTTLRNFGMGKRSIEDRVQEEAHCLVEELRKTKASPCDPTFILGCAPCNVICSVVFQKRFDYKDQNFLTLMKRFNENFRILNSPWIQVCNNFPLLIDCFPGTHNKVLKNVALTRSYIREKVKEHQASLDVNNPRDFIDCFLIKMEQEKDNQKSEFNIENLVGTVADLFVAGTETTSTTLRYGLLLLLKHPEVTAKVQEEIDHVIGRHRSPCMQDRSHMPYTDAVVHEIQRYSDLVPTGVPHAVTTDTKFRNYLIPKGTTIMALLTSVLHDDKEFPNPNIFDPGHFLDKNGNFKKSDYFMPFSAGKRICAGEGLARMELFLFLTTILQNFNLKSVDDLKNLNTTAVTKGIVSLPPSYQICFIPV
- METHOD NOTES: in vitro
- CONDITION DETAILS: microsomes, pH 7.4
MEASURED QUANTITY: pKi
Please report pKi as the negative decimal logarithm of the molar concentration, giving only the number.

Which pKi value is on record for "O=C1Nc2ccc(Cl)cc2[C@@](C#CC2CC2)(C(F)(F)F)O1" ?
5.32

---

- STUDY SYSTEM: CYP2A6 (Homo sapiens, UniProt P11509)
- Sequence (P11509 1-494): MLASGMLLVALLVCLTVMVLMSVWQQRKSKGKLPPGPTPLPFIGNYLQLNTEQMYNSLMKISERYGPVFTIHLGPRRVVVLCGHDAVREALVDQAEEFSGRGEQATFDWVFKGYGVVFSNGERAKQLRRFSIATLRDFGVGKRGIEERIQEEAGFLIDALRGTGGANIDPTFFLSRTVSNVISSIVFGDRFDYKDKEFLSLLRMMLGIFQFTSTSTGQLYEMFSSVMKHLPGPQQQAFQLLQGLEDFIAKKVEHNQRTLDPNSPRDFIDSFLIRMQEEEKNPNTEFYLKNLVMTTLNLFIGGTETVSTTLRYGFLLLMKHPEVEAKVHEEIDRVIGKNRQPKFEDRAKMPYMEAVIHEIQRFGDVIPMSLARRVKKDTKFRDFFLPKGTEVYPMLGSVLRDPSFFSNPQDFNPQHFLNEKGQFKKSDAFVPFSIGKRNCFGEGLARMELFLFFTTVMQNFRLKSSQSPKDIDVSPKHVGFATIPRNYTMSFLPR
- METHOD NOTES: Inhibition of CYP2A6
- Type: in vitro ADME
- CONDITION DETAILS: pooled human liver microsomes, pH 7.4, probe coumarin (7-hydroxylation)
MEASURED QUANTITY: inhibition at 10 μM

Which inhibition at 10 μM value is on record for "O=C1Nc2ccc(Cl)cc2[C@@](C#CC2CC2)(C(F)(F)F)O1" ?
< 10%

Source listed as paper PMC4075192.
